# Assay overview: Antiplatelet activity in rabbit platelet rich plasma assessed as inhibition of ADP-induced aggregation at 0.4 mM treated for 5 mins prior to ADP-challenge relative to control
# Assay type: functional
# Condition parameters: Oryctolagus cuniculus
// label = Yes if inhibition at 400 µM is not less than 10%, otherwise No

Answered cases to consult:
Molecule | Class label
C=CCSSCc1nc(C)c(C)nc1C | Yes
COc1cc(C(=O)O)ccc1OCc1nc(C)c(C)nc1C | No
CCOC(=O)c1ccccc1OCc1nc(C)c(C)nc1C | Yes

Okay, next one:
// query Answer whether inhibition at 400 µM of Cc1nc(C)c(CSc2nnc(-c3ccco3)n2N)nc1C is greater than or equal to 10%.
// result Yes

====

# Assay overview: Cytoprotective activity in H2O2-induced human ECV304 cells assessed as proliferation rate at 100 uM incubated for 24 hrs prior to H2O2-challenge measured after 12 hrs by MTT assay relative to control
# Type: functional
# Condition parameters: ECV-304, read-out: Activity
Observable: growth at 100 µM (%)
Note: unit % is implicit; provide only the numeric part.

Below: 5 compounds and their reported growth at 100 µM.
Molecule | Observed result
Cc1nc(C)c(COc2ccccc2C(=O)O)nc1C | 20
Cc1nc(C)c(COc2ccc3c(C)cc(=O)oc3c2)nc1C | 36.6
CCOC(=O)c1ccccc1OCc1nc(C)c(C)nc1C | 20
CCOC(=O)c1ccc(OCc2nc(C)c(C)nc2C)c(OC)c1 | 16
Cc1nc(C)c(CSc2nc(C)c(CC(=O)O)s2)nc1C | 48.1

// query Which measured growth at 100 µM value corresponds to C=CCc1ccc(OCc2nc(C)c(C)nc2C)c(OC)c1 ?
// result 36

// query Would you kindly share the measured growth at 100 µM for COc1cc(C(=O)O)ccc1OCc1nc(C)c(C)nc1C ?
// result 19

====

# Assay overview: Antiplatelet activity in rabbit platelet rich plasma assessed as inhibition of ADP-induced aggregation treated for 5 mins prior to ADP-challenge
# Type: functional
# Condition parameters: Oryctolagus cuniculus
Measured IC50, listed per entry for reference.
Record the value in µM, omitting the unit from your answer.

Molecule | Unit text | Observed result
CCOC(=O)c1ccccc1OCc1nc(C)c(C)nc1C | µM | 2000
CSc1snc(OCc2nc(C)c(C)nc2C)c1C#N | µM | 1500
Cc1nc(C)c(CSc2nc3ccccc3s2)nc1C | µM | 1600
Cc1nc(C)c(COc2ccc3ccc(=O)oc3c2)nc1C | µM | 1300

// query Requested read-out: IC50. Entry: Cc1nc(C)c(COc2ccc3c(C)cc(=O)oc3c2)nc1C
// result 920

// query Record request: IC50 value, item Cc1nc(C)c(CSc2nnc(-c3ccco3)n2N)nc1C
// result 940

====

# Assay overview: Antiplatelet activity in rabbit platelet rich plasma assessed as inhibition of ADP-induced aggregation at 0.4 mM treated for 5 mins prior to ADP-challenge relative to control
# Format: functional
# Condition parameters: Oryctolagus cuniculus
In this section, each of the compounds is paired with its reported inhibition at 400 µM.
The reply should contain only the number, in %.

Use the examples below as a reference point.
Molecule | Observed result
Cc1nc(C)c(CSc2nc3ccccc3s2)nc1C | 33.4
CCOC(=O)c1ccc(OCc2nc(C)c(C)nc2C)c(OC)c1 | -3.31
CSc1snc(OCc2nc(C)c(C)nc2C)c1C#N | 32.2

# input for lookup
// query # query: inhibition at 400 µM of entry O=C(O)/C=C/c1ccc(Cn2ccnc2)cc1
// result 55.3
